Listing of recorded Growth Rate by entry.
- Tested on: Fibroblast
- protocol_description: Incucyte cell viability with human fibroblast; note: unitless GR value; below 1 slowed growth and below 0 cell loss
- Type: toxicity, cell-based
- condition_info: 6 h, 10 µM, compound concentration 10 uM, replicate number 1, timepoint 6 hours
// return just the number, without any unit appended

C[C@@H]1C[C@H]2[C@@H]3CCC4=CC(=O)C=C[C@]4(C)[C@@]3(F)[C@@H](O)C[C@]2(C)[C@@]1(O)C(=O)CO	0.88

IN: Which Growth Rate reading was recorded for the molecule CN(C)CCCOc1ccc(-c2cc(NCCCn3cccn3)nc(S(C)(=O)=O)n2)cc1 ?
OUT: 0.86

IN: Which Growth Rate reading was recorded for the molecule CSc1nc(NC2CCCC2)c([N+](=O)[O-])c(NC2CCCC2)n1 ?
OUT: -0.14

IN: Which Growth Rate reading was recorded for the molecule CC[S+]([O-])c1nc(-c2cccc(OCc3ccccc3)c2)cc(C(F)(F)F)n1 (stereo not drawn) ?
OUT: -0.79

IN: Which Growth Rate reading was recorded for the molecule CC(C)Cc1ccc([C@@H](C)C(=O)NS(C)(=O)=O)cc1 ?
OUT: 0.51

IN: Which Growth Rate reading was recorded for the molecule CCCCCCCCc1ccc(CC[C@](N)(CO)COP(=O)(O)O)cc1 ?
OUT: 0.71

IN: Which Growth Rate reading was recorded for the molecule Cc1ccc(Cn2nc(C(=O)N[C@@H]3C(C)(C)[C@@H]4CC[C@@]3(C)C4)cc2-c2ccc(Cl)c(C)c2)cc1 ?
OUT: 0.46

IN: Which Growth Rate reading was recorded for the molecule C[C@@H](O[C@H]1OCCN(Cc2n[nH]c(=O)[nH]2)[C@H]1c1ccc(F)cc1)c1cc(C(F)(F)F)cc(C(F)(F)F)c1 [APREPITANT] ?
OUT: 0.71
